Attribution: ChEMBL document CHEMBL5143747

Kindly state IC50 for each of the entries shown.
experiment: Inhibition of LPS-stimulated IL-6 release in human PBMC measured after 4 hrs by ELISA; type: toxicity, cell-based

Tell us which IC50 value is on record for O=c1cc(CC2CCCCO2)[nH]c2nc(Nc3c4c(cc5c3CCC5)CCC4)nn12 (centres undefined)
> 40 µM

Tell us which IC50 value is on record for `S=c1cc(Cc2ccccn2)[nH]c2nc(Nc3c4c(cc5c3CCC5)CCC4)nn12`
> 40 µM

Tell us which IC50 value is on record for S=c1cc(CC2CCCCO2)[nH]c2nc(Nc3c4c(cc5c3CCC5)CCC4)nn12 (centres undefined)
> 20 µM

Tell us which IC50 value is on record for `O=c1cc(Cc2ccccn2)[nH]c2nc(Nc3c4c(cc5c3CCC5)CCC4)nn12`
> 40 µM

----------
target: NACHT, LRR and PYD domains-containing protein 3 (Homo sapiens); assay: Inhibition of NLRP3 inflammasome in LPS-pretreated human THP1-ASC-GFP cells assessed as reduction in speck positive cells measured after 30 mins in presence of caspase inhibitor zVAD-FMK by Hoechst 33342 staining based confocal microscopy; type: cell-based
metric name: IC50 (nM)
Just the number please, in nM, no unit attached.

Give IC50 only, for O=c1cc(CC2CCCCO2)[nH]c2nc(Nc3c4c(cc5c3CCC5)CCC4)nn12 (stereo unspecified) , using NACHT, LRR and PYD domains-containing protein 3 (Homo sapiens) data.
1300

----------
assay: Protein binding in human plasma; type: ADME, cell-free; details: read-out: PPB (converted)
metric name: fraction unbound
Output: the number by itself.

Tell us which fraction unbound value is on record for O=c1cc(CC2CCCCO2)[nH]c2nc(Nc3c4c(cc5c3CCC5)CCC4)nn12 (centres undefined)
0.001

Tell us which fraction unbound value is on record for `S=c1cc(Cc2ccccn2)[nH]c2nc(Nc3c4c(cc5c3CCC5)CCC4)nn12`
0.019

Tell us which fraction unbound value is on record for `O=c1cc(Cc2ccccn2)[nH]c2nc(Nc3c4c(cc5c3CCC5)CCC4)nn12`
0.002

Tell us which fraction unbound value is on record for S=c1cc(CC2CCCCO2)[nH]c2nc(Nc3c4c(cc5c3CCC5)CCC4)nn12 (centres undefined)
0.001

----------
assay: Permeability of compound in pH 7.4 phosphate buffered saline at 10 uM measured after 4 hrs by PAMPA; type: ADME; conditions: read-out: permeability
metric name: Papp at 4 h, 10 µM

Tell us which Papp at 4 h, 10 µM value is on record for `S=c1cc(Cc2ccccn2)[nH]c2nc(Nc3c4c(cc5c3CCC5)CCC4)nn12`
< 0.018 ×10⁻⁶ cm/s

Tell us which Papp at 4 h, 10 µM value is on record for `O=c1cc(Cc2ccccn2)[nH]c2nc(Nc3c4c(cc5c3CCC5)CCC4)nn12`
< 0.018 ×10⁻⁶ cm/s

Tell us which Papp at 4 h, 10 µM value is on record for S=c1cc(CC2CCCCO2)[nH]c2nc(Nc3c4c(cc5c3CCC5)CCC4)nn12 (centres undefined)
< 0.0004 ×10⁻⁶ cm/s

Tell us which Papp at 4 h, 10 µM value is on record for O=c1cc(CC2CCCCO2)[nH]c2nc(Nc3c4c(cc5c3CCC5)CCC4)nn12 (centres undefined)
0.038 ×10⁻⁶ cm/s

----------
biological target: NACHT, LRR and PYD domains-containing protein 3 (Homo sapiens); test: Inhibition of NLRP3 inflammasome in LPS-pretreated human whole blood assessed as reduction in IL-1beta release pretreated for 30 mins followed by ATP stimulated and measured after 1 hr by HTRF assay; assay type: tissue-based
pIC50: −log10 of the molar value.
metric name: pIC50

Tell us which pIC50 value is on record for O=c1cc(CC2CCCCO2)[nH]c2nc(Nc3c4c(cc5c3CCC5)CCC4)nn12 (stereo unspecified)
< 4.40

----------
target: NACHT, LRR and PYD domains-containing protein 3 (Homo sapiens, UniProt Q96P20); assay: Inhibition of NLRP3 inflammasome in LPS-pretreated PBMC (unknown origin) assessed as reduction in IL-1beta release pretreated for 30 mins followed by ATP stimulated and measured after 1 hr by ELISA; type: cell-based; conditions: read-out: IC50
Sequence (Q96P20 whole entry, the tested form may be a part): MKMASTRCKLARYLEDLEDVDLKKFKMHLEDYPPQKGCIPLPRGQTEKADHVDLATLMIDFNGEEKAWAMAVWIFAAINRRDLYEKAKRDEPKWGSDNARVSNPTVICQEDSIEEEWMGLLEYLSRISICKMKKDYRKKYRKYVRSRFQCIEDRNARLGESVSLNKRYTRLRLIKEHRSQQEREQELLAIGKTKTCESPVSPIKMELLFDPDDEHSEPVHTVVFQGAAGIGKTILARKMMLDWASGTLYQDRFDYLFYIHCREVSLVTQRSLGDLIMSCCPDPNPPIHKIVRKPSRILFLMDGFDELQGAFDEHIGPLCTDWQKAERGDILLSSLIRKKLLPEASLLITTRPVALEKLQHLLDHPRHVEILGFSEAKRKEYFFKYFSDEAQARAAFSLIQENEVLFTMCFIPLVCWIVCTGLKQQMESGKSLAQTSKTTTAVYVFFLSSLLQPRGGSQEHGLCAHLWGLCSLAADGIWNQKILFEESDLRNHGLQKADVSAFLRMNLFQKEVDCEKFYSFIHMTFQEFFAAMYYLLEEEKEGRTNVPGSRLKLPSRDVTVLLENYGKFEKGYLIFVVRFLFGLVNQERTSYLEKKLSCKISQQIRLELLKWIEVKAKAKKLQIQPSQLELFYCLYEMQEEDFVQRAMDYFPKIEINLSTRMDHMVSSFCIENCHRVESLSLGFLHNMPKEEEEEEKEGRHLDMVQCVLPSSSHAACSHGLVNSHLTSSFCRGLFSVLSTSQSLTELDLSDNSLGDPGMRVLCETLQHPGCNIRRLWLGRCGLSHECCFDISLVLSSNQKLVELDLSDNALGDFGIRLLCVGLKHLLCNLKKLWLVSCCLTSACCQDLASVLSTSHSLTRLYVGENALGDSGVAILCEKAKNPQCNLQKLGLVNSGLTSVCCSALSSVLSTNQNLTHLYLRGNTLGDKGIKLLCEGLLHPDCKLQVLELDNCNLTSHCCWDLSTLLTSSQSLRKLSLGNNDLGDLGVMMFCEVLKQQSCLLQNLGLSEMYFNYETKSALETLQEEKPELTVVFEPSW
Kindly state pIC50 for each of the entries shown.
Remember, pIC50 is on a log scale: it is -log10 of the molar concentration.

Tell us which pIC50 value is on record for `O=c1cc(Cc2cccc(Cl)c2)[nH]c2nc(Nc3c4c(cc5c3CCC5)CCC4)nn12`
5.55

Tell us which pIC50 value is on record for `Cn1nccc1Cc1cc(=O)n2nc(Nc3c4c(cc5c3CCC5)CCC4)nc2[nH]1`
5.70

Tell us which pIC50 value is on record for `O=c1cc(Cc2ncccn2)[nH]c2nc(Nc3c4c(cc5c3CCC5)CCC4)nn12`
5.77

Tell us which pIC50 value is on record for `COc1ccc(Cc2cc(=O)n3nc(Nc4c5c(cc6c4CCC6)CCC5)nc3[nH]2)cc1`
5.52

Tell us which pIC50 value is on record for CN1CCOC(Cc2cc(=O)n3nc(Nc4c5c(cc6c4CCC6)CCC5)nc3[nH]2)C1 (stereo unspecified)
5.06

Tell us which pIC50 value is on record for `O=c1cc(Cc2ccccc2)[nH]c2nc(Nc3c4c(cc5c3CCC5)CCC4)nn12`
5.74

Tell us which pIC50 value is on record for `O=c1cc(Cc2ccc(Cl)cc2)[nH]c2nc(Nc3c4c(cc5c3CCC5)CCC4)nn12`
5.00

Tell us which pIC50 value is on record for `Cn1ccc(Cc2cc(=O)n3nc(Nc4c5c(cc6c4CCC6)CCC5)nc3[nH]2)n1`
5.74

Tell us which pIC50 value is on record for CN1CCOCC1Cc1cc(=O)n2nc(Nc3c4c(cc5c3CCC5)CCC4)nc2[nH]1 (stereo unspecified)
5.22

Tell us which pIC50 value is on record for `O=c1cc(Cc2ccncc2)[nH]c2nc(Nc3c4c(cc5c3CCC5)CCC4)nn12`
5.24

Tell us which pIC50 value is on record for `O=c1cc(CC2CCCCC2)[nH]c2nc(Nc3c4c(cc5c3CCC5)CCC4)nn12`
5.35

Tell us which pIC50 value is on record for `O=c1cc(CC2CCOCC2)[nH]c2nc(Nc3c4c(cc5c3CCC5)CCC4)nn12`
5.47

Tell us which pIC50 value is on record for `Cn1cc(Cc2cc(=O)n3nc(Nc4c5c(cc6c4CCC6)CCC5)nc3[nH]2)cn1`
5.31

----------
Kindly state fraction unbound for each of the entries shown.
assay: Protein binding in mouse plasma; type: ADME, cell-free; details: read-out: PPB (converted)
Output: the number by itself.

Tell us which fraction unbound value is on record for S=c1cc(CC2CCCCO2)[nH]c2nc(Nc3c4c(cc5c3CCC5)CCC4)nn12 (stereo not drawn)
0.004

Tell us which fraction unbound value is on record for `S=c1cc(Cc2ccccn2)[nH]c2nc(Nc3c4c(cc5c3CCC5)CCC4)nn12`
0.004

Tell us which fraction unbound value is on record for O=c1cc(CC2CCCCO2)[nH]c2nc(Nc3c4c(cc5c3CCC5)CCC4)nn12 (stereo not drawn)
0.002

----------
Kindly state IC50 for each of the entries shown.
target: NACHT, LRR and PYD domains-containing protein 3 (Homo sapiens, UniProt Q96P20); assay: Inhibition of NLRP3 inflammasome in LPS-pretreated PBMC (unknown origin) assessed as reduction in IL-1beta release pretreated for 30 mins followed by ATP stimulated and measured after 1 hr by ELISA; type: cell-based; settings: read-out: IC50

Tell us which IC50 value is on record for `O=c1cc(C2CCNCC2)[nH]c2nc(Nc3c4c(cc5c3CCC5)CCC4)nn12`
> 40 µM

Tell us which IC50 value is on record for O=c1cc(C2CCCNC2)[nH]c2nc(Nc3c4c(cc5c3CCC5)CCC4)nn12 (configuration not stated)
> 40 µM

Tell us which IC50 value is on record for `CN1CCN(Cc2cc(=O)n3nc(Nc4c5c(cc6c4CCC6)CCC5)nc3[nH]2)CC1`
> 40 µM

Tell us which IC50 value is on record for `Cc1c[nH]c2nc(Nc3c4c(cc5c3CCC5)CCC4)nn2c1=O`
> 40 µM

Tell us which IC50 value is on record for `O=c1cc(CCc2ccccc2)[nH]c2nc(Nc3c4c(cc5c3CCC5)CCC4)nn12`
3.4 µM

Tell us which IC50 value is on record for `O=c1cc(Cc2cccnc2)[nH]c2nc(Nc3c4c(cc5c3CCC5)CCC4)nn12`
3.4 µM

Tell us which IC50 value is on record for `COCCc1cc(=O)n2nc(Nc3c4c(cc5c3CCC5)CCC4)nc2[nH]1`
2.8 µM
